assay: Selectivity index, ratio of IC50 for human MAO-A to IC50 for human MAO-B
outcomeMeasure: Ratio IC50

- compound: "C#CCNC1CCc2c(SCCc3cccc(Br)c3)cccc21 (stereo unspecified)"
  Ratio IC50: 0.02
- compound: "C#CCNC1CCc2c(SCCc3cccc(C(F)(F)F)c3)cccc21 (stereo unspecified)"
  Ratio IC50: 0.076
- compound: "C#CCNC1CCc2c(SCc3ccc4ccccc4c3)cccc21 (stereo unspecified)"
  Ratio IC50: 14
- compound: "C#CCNC1CCc2c(SCCc3cccc(OC)c3)cccc21 (stereo unspecified)"
  Ratio IC50: 0.13

I = C#CCNC1CCc2c(SCCc3cccc(C)c3)cccc21 (stereo unspecified)
II = C#CCNC1CCc2c(SCc3ccc(OC)cc3)cccc21 (stereo unspecified)
Inquiry: Please let me know which one, I or II , has a lower measured Ratio IC50 value. # answer = label of selected item
Reply text: II
(II: 2.09, I: 14200)

###

assay: Selectivity index, ratio of IC50 for human MAO-A to IC50 for human MAO-B
outcomeMeasure: Ratio IC50

Reference set, count: 5
- compound: "C#CCNC1CCc2c(OCc3cccc(C(F)(F)F)c3)cccc21 (configuration not stated)"
  outcomeMeasure: "Ratio IC50"
  number: 0.84
- compound: "C#CCNC1CCc2c(SCCc3ccc(C(F)(F)F)cc3)cccc21 (configuration not stated)"
  outcomeMeasure: "Ratio IC50"
  number: 0.54
- compound: "C#CCNC1CCc2c(SCCc3ccc(Br)cc3)cccc21 (configuration not stated)"
  outcomeMeasure: "Ratio IC50"
  number: 0.015
- compound: "C#CCNC1CCc2c(SCCc3ccc(C)cc3)cccc21 (configuration not stated)"
  outcomeMeasure: "Ratio IC50"
  number: 0.18
- compound: "C#CCNC1CCc2c(SCc3ccc(F)c(F)c3)cccc21 (configuration not stated)"
  outcomeMeasure: "Ratio IC50"
  number: 0.99

a = C#CCNC1CCc2c(SCc3ccc(C)cc3)cccc21 (configuration not stated)
b = C#CCNC1CCc2c(SCCc3cccc(F)c3)cccc21 (configuration not stated)
c = C#CCNC1CCc2c(SCCc3ccc(Cl)c(Cl)c3)cccc21 (configuration not stated)
Inquiry: Please list the entries, largest Ratio IC50 first. Please respond by ranking the labels in the order requested.
Reply text: b, c, a
(b: 1.82, c: 0.73, a: 0.2)

1 = C#CCNC1CCc2c(SCc3ccc(Cl)cc3Cl)cccc21 (configuration not stated)
2 = C#CCNC1CCc2c(SCc3cccc(Cl)c3)cccc21 (configuration not stated)
Inquiry: Please let me know which one, 1 or 2 , has a lower measured Ratio IC50 value. # answer = label of selected item
Reply text: 2
(2: 0.047, 1: 5.93)

1 = C#CCNC1CCc2c(SCc3ccc(F)cc3F)cccc21 (configuration not stated)
2 = C#CCNC1CCc2c(SCc3cccc(F)c3)cccc21 (configuration not stated)
Inquiry: Please let me know which one, 1 or 2 , has a lower measured Ratio IC50 value. # answer = label of selected item
Reply text: 1
(1: 0.61, 2: 7.79)

###

Target: Amine oxidase [flavin-containing] B (Homo sapiens, UniProt P27338)
Sequence (P27338 whole entry): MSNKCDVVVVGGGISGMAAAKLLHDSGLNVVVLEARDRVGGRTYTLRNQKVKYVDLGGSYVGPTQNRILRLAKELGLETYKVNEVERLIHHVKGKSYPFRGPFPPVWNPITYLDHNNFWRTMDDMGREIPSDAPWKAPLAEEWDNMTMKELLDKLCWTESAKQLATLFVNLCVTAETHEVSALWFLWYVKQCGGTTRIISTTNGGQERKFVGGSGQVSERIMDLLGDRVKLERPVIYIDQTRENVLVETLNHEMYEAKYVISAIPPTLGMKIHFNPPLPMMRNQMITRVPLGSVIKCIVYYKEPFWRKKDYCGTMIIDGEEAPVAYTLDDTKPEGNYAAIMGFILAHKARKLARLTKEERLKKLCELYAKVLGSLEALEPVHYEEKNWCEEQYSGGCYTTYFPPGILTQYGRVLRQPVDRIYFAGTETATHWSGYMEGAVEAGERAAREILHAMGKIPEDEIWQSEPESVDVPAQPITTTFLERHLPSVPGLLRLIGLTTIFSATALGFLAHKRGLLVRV
Test: Inhibition of human MAO-B
outcomeMeasure: IC50 (µM)

Reference set, count: 4
- molecule: "C#CCNC1CCc2c(SCCc3ccc(Br)cc3)cccc21 (stereo unspecified)"
  number: 85.3
- molecule: "C#CCNC1CCc2c(SCCc3ccc(C(F)(F)F)cc3)cccc21 (stereo unspecified)"
  number: 16.1
- molecule: "C#CCNC1CCc2c(SCc3ccc(C(F)(F)F)cc3)cccc21 (stereo unspecified)"
  number: 9.68
- molecule: "C#CCNC1CCc2c(SCc3ccc(Cl)c(Cl)c3)cccc21 (stereo unspecified)"
  number: 2.84

I = C#CCNC1CCc2c(SCCc3ccc(Cl)c(Cl)c3)cccc21 (stereo unspecified)
II = C#CCNC1CCc2c(SCc3ccc(C)cc3)cccc21 (stereo unspecified)
III = C#CCNC1CCc2c(SCc3ccccc3)cccc21 (stereo unspecified)
IV = C#CCNC1CCc2c(SCc3cccc(Cl)c3)cccc21 (stereo unspecified)
V = C#CCNC1CCc2c(SCCc3cccc(C)c3)cccc21 (stereo unspecified)
Inquiry: Please list the entries, largest IC50 first. Please respond by ranking the labels in the order requested.
Reply text: IV, III, I, II, V
(IV: 23.3 µM, III: 6.4 µM, I: 3.85 µM, II: 1.56 µM, V: 0.00035 µM)

I = C#CCNC1CCc2c(SCCc3cccc(C(F)(F)F)c3)cccc21 (stereo unspecified)
II = C#CCNC1CCc2c(OCc3cccc(C(F)(F)F)c3)cccc21 (stereo unspecified)
Inquiry: API: POST /compare with I and II ; response names the item with higher IC50. # answer = label of selected item
Reply text: II

1 = C#CCNC1CCc2c(SCCc3cccc(F)c3)cccc21 (stereo unspecified)
2 = C#CCNC1CCc2c(SCCc3cccc(OC)c3)cccc21 (stereo unspecified)
Inquiry: Please let me know which one, 1 or 2 , has a lower measured IC50 value. # answer = label of selected item
Reply text: 1

###

assay: Selectivity index, ratio of IC50 for human MAO-A to IC50 for human MAO-B
outcomeMeasure: Ratio IC50

I = C#CCNC1CCc2c(SCCc3ccc(Cl)cc3)cccc21 (centres undefined)
II = C#CCNC1CCc2c(SCc3cccc(C(F)(F)F)c3)cccc21 (centres undefined)
Inquiry: Please let me know which one, I or II , has a lower measured Ratio IC50 value. # answer = label of selected item
Reply text: I

###

Target: UniProt P27338
Sequence (P27338 whole entry): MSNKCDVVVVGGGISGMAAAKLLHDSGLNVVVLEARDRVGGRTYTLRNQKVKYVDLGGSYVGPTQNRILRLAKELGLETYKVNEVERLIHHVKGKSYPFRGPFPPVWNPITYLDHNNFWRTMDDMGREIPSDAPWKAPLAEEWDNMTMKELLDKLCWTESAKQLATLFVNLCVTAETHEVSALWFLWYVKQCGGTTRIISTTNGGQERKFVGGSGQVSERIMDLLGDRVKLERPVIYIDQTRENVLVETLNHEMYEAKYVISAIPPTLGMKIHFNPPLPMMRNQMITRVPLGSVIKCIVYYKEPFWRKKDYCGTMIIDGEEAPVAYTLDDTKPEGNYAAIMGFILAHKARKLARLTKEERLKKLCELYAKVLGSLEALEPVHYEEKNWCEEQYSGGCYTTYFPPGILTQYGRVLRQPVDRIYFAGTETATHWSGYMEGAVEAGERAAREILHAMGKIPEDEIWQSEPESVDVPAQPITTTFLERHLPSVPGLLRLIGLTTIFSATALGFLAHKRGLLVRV
Assay: Inhibition of human MAO-B
outcomeMeasure: IC50 (µM)

Reference set, count: 8
- molecule: "C#CCNC1CCc2c(SCCc3ccc(OC)cc3)cccc21 (stereo not drawn)"
  quantityUnit: "µM"
  number: 62
- molecule: "C#CCNC1CCc2c(SCc3ccc(F)cc3F)cccc21 (stereo not drawn)"
  quantityUnit: "µM"
  number: 2.43
- molecule: "C#CCNC1CCc2c(SCc3ccc4ccccc4c3)cccc21 (stereo not drawn)"
  quantityUnit: "µM"
  number: 4.95
- molecule: "C#CCNC1CCc2c(SCCc3cccc(Br)c3)cccc21 (stereo not drawn)"
  quantityUnit: "µM"
  number: 30.5
- molecule: "C#CCNC1CCc2c(SCc3ccc(F)c(F)c3)cccc21 (stereo not drawn)"
  quantityUnit: "µM"
  number: 2.65
- molecule: "C#CCNC1CCc2c(SCc3cccc(F)c3)cccc21 (stereo not drawn)"
  quantityUnit: "µM"
  number: 1.48
- molecule: "C#CCNC1CCc2c(SCc3cccc(C(F)(F)F)c3)cccc21 (stereo not drawn)"
  quantityUnit: "µM"
  number: 0.0047
- molecule: "C#CCNC1CCc2c(SCCc3ccc(Cl)cc3)cccc21 (stereo not drawn)"
  quantityUnit: "µM"
  number: 10.8

A = C#CCNC1CCc2c(NCc3cccc(C(F)(F)F)c3)cccc21 (stereo not drawn)
B = C#CCNC1CCc2c(SCCc3cccc(Cl)c3)cccc21 (stereo not drawn)
Inquiry: API: POST /compare with A and B ; response names the item with higher IC50. # answer = label of selected item
Reply text: B
(B: 82.4 µM, A: 5.11 µM)
